Cited source for all entries: patent US20190367612A1

molecular target: T1, human GPRC5D (human, UniProt Q9NZD1 1-345); assay: flow cytometry on KHM-1B cells (human GPRC5D), culture supernatant, PE anti-human IgG Fc, rMFI over human IgG isotype control
T1 construct: whole, on cells; also called hGPRC5D; G-protein coupled receptor family C group 5 member D
T1 sequence (Q9NZD1 whole entry): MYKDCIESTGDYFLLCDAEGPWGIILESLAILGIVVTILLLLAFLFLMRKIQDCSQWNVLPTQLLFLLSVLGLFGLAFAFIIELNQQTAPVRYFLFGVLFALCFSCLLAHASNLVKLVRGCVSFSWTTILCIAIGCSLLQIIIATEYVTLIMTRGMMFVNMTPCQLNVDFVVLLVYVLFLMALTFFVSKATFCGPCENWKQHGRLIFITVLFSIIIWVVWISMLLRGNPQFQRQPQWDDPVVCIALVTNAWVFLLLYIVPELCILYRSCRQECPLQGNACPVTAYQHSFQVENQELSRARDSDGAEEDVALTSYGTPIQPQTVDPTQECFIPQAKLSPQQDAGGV

binder	binding result
humanized anti-GPRC5D antibody h2B1_H4/L3 (antibody, human IgG1, kappa, V domains shown, Human IgG1 / kappa) VH: QVTLKESGPALVKPTQTLTLTCTFSGFSLNTYDMGVGWIRQPPGKGLEWLANIWWDDDKYYSPSLKSRLTITKDTSNNQAVLTMTNMDPVDTATYYCARIETVRVSRKGFAHWGQGTLVTVSS VL: DTVMTQSPDSLAVSLGERATINCKASQSVGINVDWYQQKPGQPPKLLIYGASNRHTGVPDRFSGSGFGRDFTLTISSLQAEDVAVYYCLQHGSIPPTFGQGTKVEIKR	binds
humanized anti-GPRC5D antibody h2B1_H4/L4 (antibody, human IgG1, kappa, V domains shown, Human IgG1 / kappa) VH: QVTLKESGPALVKPTQTLTLTCTFSGFSLNTYDMGVGWIRQPPGKGLEWLANIWWDDDKYYSPSLKSRLTITKDTSNNQAVLTMTNMDPVDTATYYCARIETVRVSRKGFAHWGQGTLVTVSS VL: DTVMTQSPDSLAVSLGERATINCKASQSVGINVDWYQQKPGQSPKLLIYGASNRHTGVPDRFSGSGFGRDFTLTISSLQAEDVAVYYCLQHGSIPPTFGQGTKVEIKR	binds
